Reference source for all entries: ChEMBL document CHEMBL1126142

Documented pIC50 across a set of molecules
System: P388
PROTOCOL_DETAILS: Inhibitory activity against mutant murine leukemia cell line P388/AMSA
Format: functional, cell-based
EXPERIMENTAL_CONTEXT: Mus musculus
pIC50: −log10 of the molar value.

- SMILES_STRUCTURE: "CN(C)CCNC(=O)c1cccc2c1Oc1ccccc1O2"
  pIC50: 5.74
- SMILES_STRUCTURE: "CN(C)CCNC(=O)c1cccc2c1Oc1c(Cl)cccc1O2"
  pIC50: 5.59
- SMILES_STRUCTURE: "CN(C)CCNC(=O)c1cccc2c1Oc1c(Br)cccc1O2"
  pIC50: 6.14
- SMILES_STRUCTURE: "Cc1cccc2c1Oc1c(cccc1C(=O)NCCN(C)C)O2"
  pIC50: 5.11
- SMILES_STRUCTURE: "COc1cccc2c1Oc1c(cccc1C(=O)NCCN(C)C)O2"
  pIC50: 6.28
- SMILES_STRUCTURE: "CN(C)CCNC(=O)c1cccc2c1Oc1c(cccc1[N+](=O)[O-])O2"
  pIC50: 6.35
